// values below are reported pIC50
tested on: MCF7; assay: Antiproliferative activity against human MCF7 cells after 48 hrs by MTT assay; format: functional, cell-based; settings: MCF7, 48 h
pIC50: −log10 of the molar value.

{"columns": ["structure as smiles", "pIC50"],
 "data": [
  ["COc1cccc(/C=C/c2nnc(NC(=O)c3cc(OC)c(OC)c(OC)c3Br)s2)c1", 6.23],
  ["COc1cc(/C=C/c2nnc(NC(=O)c3cc(OC)c(OC)c(OC)c3Br)s2)c(Br)c(OC)c1OC", 6.33],
  ["COc1cc(/C=C/c2nnc(NC(=O)c3cccc(O)c3)s2)cc(OC)c1OC", 6.34],
  ["COc1ccc(/C=C/c2nnc(NC(=O)c3cc(OC)c(OC)c(OC)c3Br)s2)cc1", 6.26]
]}

###

tested on: MCF7; test: Antiproliferative activity against human MCF7 cells after 48 hrs by MTT assay; type: functional, cell-based; conditions: MCF7, 48 h
pIC50: −log10 of the molar value.
assay endpoint: pIC50

{"columns": ["structure as smiles", "target or test system", "assay value"],
 "data": [
  ["COc1cc(/C=C/c2nnc(NC(=O)c3cccc(Cl)c3)s2)c(Br)c(OC)c1OC", "MCF7", 6.64],
  ["COc1cccc(C(=O)Nc2nnc(/C=C/c3cc(OC)c(OC)c(OC)c3)s2)c1", "MCF7", 6.32],
  ["COc1ccc(C(=O)Nc2nnc(/C=C/c3cc(OC)c(OC)c(OC)c3)s2)cc1OC", "MCF7", 6.32],
  ["COc1ccc(C(=O)Nc2nnc(/C=C/c3cc(OC)c(OC)c(OC)c3Br)s2)cc1OC", "MCF7", 7.22],
  ["COc1cc(/C=C/c2nnc(NC(=O)c3ccc(Br)cc3)s2)c(Br)c(OC)c1OC", "MCF7", 6.49]
]}

###

target: Tubulin (Bos taurus, UniProt Q6B856+Q862L2+Q862F3); experiment: Inhibition of bovine brain tubulin polymerization after 20 mins by turbidimetric method

{"columns": ["structure as smiles", "IC50, µM"],
 "data": [
  ["COc1cccc(C(=O)Nc2nnc(/C=C/c3cc(OC)c(OC)c(OC)c3)s2)c1", 22.5],
  ["COc1cc(/C=C/c2nnc(NC(=O)c3cccc(Cl)c3)s2)c(Br)c(OC)c1OC", 5.68],
  ["COc1ccc(/C=C/c2nnc(NC(=O)c3ccccc3OC)s2)cc1OC", 29.44],
  ["COc1cc(/C=C/c2nnc(NC(=O)c3cc(OC)c(OC)c(OC)c3Br)s2)c(Br)c(OC)c1OC", 16.79],
  ["COc1ccc(/C=C/c2nnc(NC(=O)c3cc(OC)c(OC)c(OC)c3Br)s2)cc1", 28.58],
  ["COc1cc(/C=C/c2nnc(NC(=O)c3cccc(Br)c3)s2)c(Br)c(OC)c1OC", 6.02],
  ["COc1cc(/C=C/c2nnc(NC(=O)c3cc(OC)c(OC)c(OC)c3)s2)cc(OC)c1OC", 23.94],
  ["COc1cc(/C=C/c2nnc(NC(=O)c3ccc(F)cc3)s2)c(Br)c(OC)c1OC", 15.63],
  ["COc1cc(/C=C/c2nnc(NC(=O)c3cccc(F)c3)s2)c(Br)c(OC)c1OC", 7.08],
  ["COc1cc(/C=C/c2nnc(NC(=O)c3cccc(O)c3)s2)c(Br)c(OC)c1OC", 13.44],
  ["COc1cc(/C=C/c2nnc(NC(=O)c3cccc(O)c3)s2)cc(OC)c1OC", 23.67],
  ["COc1ccc(C(=O)Nc2nnc(/C=C/c3cc(OC)c(OC)c(OC)c3Br)s2)cc1OC", 1.73],
  ["COc1ccccc1C(=O)Nc1nnc(/C=C/c2cc(OC)c(OC)c(OC)c2Br)s1", 17.91],
  ["COc1ccc(C(=O)Nc2nnc(/C=C/c3cc(OC)c(OC)c(OC)c3)s2)cc1OC", 15.5],
  ["COc1cc(/C=C/c2nnc(NC(=O)c3ccc(Br)cc3)s2)c(Br)c(OC)c1OC", 15.09],
  ["COc1cc(/C=C/c2nnc(NC(=O)c3ccccc3Br)s2)c(Br)c(OC)c1OC", 19.45],
  ["COc1ccc(C(=O)Nc2nnc(/C=C/c3cc(OC)c(OC)c(OC)c3Br)s2)cc1", 18.79],
  ["COc1cc(C(=O)Nc2nnc(/C=C/c3cc(OC)c(OC)c(OC)c3Br)s2)cc(OC)c1OC", 16.95],
  ["COc1cc(/C=C/c2nnc(NC(=O)c3ccccc3)s2)c(Br)c(OC)c1OC", 9.83],
  ["COc1cccc(C(=O)Nc2nnc(/C=C/c3cc(OC)c(OC)c(OC)c3Br)s2)c1", 3.08],
  ["COc1ccc(/C=C/c2nnc(NC(=O)c3cc(OC)c(OC)c(OC)c3)s2)cc1OC", 28.06],
  ["COc1cc(/C=C/c2nnc(NC(=O)c3ccc(Cl)cc3)s2)c(Br)c(OC)c1OC", 11.81],
  ["COc1cccc(/C=C/c2nnc(NC(=O)c3cc(OC)c(OC)c(OC)c3Br)s2)c1", 30.36]
]}
